System: HEK-293T
experiment-notes: Multiplex assay against HEK293T
Format: toxicity, cell-based
condition-info: human, 24 h, 1 µM, compound concentration 1 uM, replicate 1
Population Fragmented Nuclei (%) less than 9% is true (1); Population Fragmented Nuclei (%) greater than or equal to 9% is false (0).

Some solved entries appear below for comparison.
>>> qualitative_label("CCCN1CCC[C@@H]2Cc3n[nH]cc3C[C@H]21.Cl [QUINPIROLE HYDROCHLORIDE]")
"false (0)"
>>> qualitative_label("Cc1ccc(/C(=C\\CN2CCCC2)c2ccccn2)cc1 [TRIPROLIDINE]")
"false (0)"
>>> qualitative_label("Cc1ccc(-c2ccc(F)cc2COc2ccc(CCC(=O)O)cc2)cc1")
"false (0)"

Population Fragmented Nuclei (%) under 9%? Item: N#Cc1c(N)nc(SCc2csc(-c3ccc(Cl)cc3)n2)c(C#N)c1-c1ccc(OCCO)cc1 [CAPADENOSON] true (1)

Population Fragmented Nuclei (%) under 9%? Item: `CN(C)CCCc1cc(C(=O)Nc2ccc(-c3ccncc3)cc2)ccc1O.Cl.Cl` false (0)

Population Fragmented Nuclei (%) under 9%? Item: Cl.Clc1ccc2nsnc2c1NC1=NCCN1 [TIZANIDINE HYDROCHLORIDE] false (0)

Population Fragmented Nuclei (%) under 9%? Item: Cc1ccc(C(C)(O)c2nc3ccccc3s2)c(C)c1 (centres undefined) false (0)

* * *

Tested on: Fibroblast
experiment-notes: Multiplex assay against human fibroblast
Assay type: toxicity, cell-based
condition-info: 48 h, 10 µM, compound concentration 10 uM, replicate 1
The threshold is inclusive: Population Hoechst High Intensity Objects (%) of exactly 7% counts as True; values below receive False.

Some solved entries appear below for comparison.
>>> qualitative_label("CC(C)(C)c1ccc(S(=O)(=O)Nc2ccc(Cl)cc2C(=O)c2cc[n+]([O-])cc2)cc1")
"False"
>>> qualitative_label("O=S(=O)(c1ccccc1)c1cnc2c(N3CCNCC3)cccc2c1 [INTEPIRDINE]")
"False"
>>> qualitative_label("O=C(NCCO)c1cccc(-c2cc(Nc3ccc(OC(F)(F)F)cc3)ncn2)c1")
"True"

Quick check, Population Hoechst High Intensity Objects (%) >= 7%? `c1cc(OCCCN2CCCCC2)ccc1CN1CCCCC1` False

Quick check, Population Hoechst High Intensity Objects (%) >= 7%? `CN(C)c1ccnc2sc3c(=O)n(N4CCCCCC4)cnc3c12` True

Quick check, Population Hoechst High Intensity Objects (%) >= 7%? `CC(=O)O[C@H]1C(=O)[C@@]2(C)[C@H]([C@H](OC(=O)c3ccccc3)[C@]3(O)C[C@H](OC(=O)[C@H](O)[C@@H](NC(=O)c4ccccc4)c4ccccc4)C(C)=C1C3(C)C)[C@]1(OC(C)=O)CO[C@@H]1C[C@@H]2O` False

Quick check, Population Hoechst High Intensity Objects (%) >= 7%? `N#Cc1c(N)nc(SCc2csc(-c3ccc(Cl)cc3)n2)c(C#N)c1-c1ccc(OCCO)cc1` False

Quick check, Population Hoechst High Intensity Objects (%) >= 7%? `O=C1COc2nccc(-c3ccccc3F)c2CN1Cc1cc(C(F)(F)F)cc(C(F)(F)F)c1` False

Quick check, Population Hoechst High Intensity Objects (%) >= 7%? `CC1(COc2ccc3c(c2)ncn3-c2ccc3cccc(N4CCC(N)CC4)c3n2)COC1` True

Quick check, Population Hoechst High Intensity Objects (%) >= 7%? `CC[C@H]1OC(=O)[C@H](C)[C@@H](O[C@H]2C[C@@](C)(OC)[C@@H](O)[C@H](C)O2)[C@H](C)[C@@H](O[C@@H]2O[C@H](C)C[C@H](N(C)C)[C@H]2O)[C@@]2(C)CC(C)=C(O2)[C@H](C)[C@@H](O)[C@]1(C)O` True
